Cited source: patent US20100158968A1

# pIC50 per entry
# tested-on: mitogen-activated protein kinase-activated protein kinase 2 (human MK2) (human), P49137
# Sequence (P49137 46-400): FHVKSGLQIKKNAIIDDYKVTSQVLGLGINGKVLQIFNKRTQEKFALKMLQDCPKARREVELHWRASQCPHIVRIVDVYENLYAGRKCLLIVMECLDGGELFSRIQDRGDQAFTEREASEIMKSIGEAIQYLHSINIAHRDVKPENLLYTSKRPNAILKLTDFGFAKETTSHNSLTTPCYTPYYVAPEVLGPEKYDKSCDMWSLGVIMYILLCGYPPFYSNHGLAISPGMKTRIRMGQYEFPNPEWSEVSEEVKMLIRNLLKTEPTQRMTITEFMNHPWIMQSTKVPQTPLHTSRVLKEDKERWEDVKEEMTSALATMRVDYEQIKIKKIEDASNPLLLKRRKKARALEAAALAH
# protocol-description: kinase inhibition, radiometric assay
# applied-conditions: modification not given
// pIC50 is dimensionless: -log10 of concentration (M)

Use these answered entries as a reference point.
binder | measured-endpoint | assay-result
WLRRIKAWLRRIKALNRQLGVAA | pIC50 | 6.13
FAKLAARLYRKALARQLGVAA | pIC50 | 5.75
YARAAARQARAKALARQLAVA | pIC50 | 4.55

In: State the recorded pIC50 for this entry: YARAAARQARAKALNRQLAVA
Out: 4.72
